# Tested target: GST-SBP-SLBP (stem-loop binding protein) (Homo sapiens, UniProt Q14493 1-270)
# Procedure summary: targeted RNA Bind-n-Seq; RBNS binding buffer: 25 mM Tris pH 7.5, 150 mM KCl, 3 mM MgCl2, 0.1% Tween, 0.5 mg/mL BSA, 1 mM DTT; 27 nM protein, 750 pM RNA pool; temperature not stated; high values mean tight binding
# Condition info: protein: recombinant; tags: N-terminal GST and SBP (pGEX6P1-SBP)
Provide the recorded binding signal for the entries that follow.
// note: answer is a bare numeric in log2 fold change

Exam item: For consensus (structured_RNA) RNA: GGUCACGUCUCAAUCAACUCCCAAAGGUCUUUUUAAAGGCCACCCAUCAACAGCUCGCAGUCAAG , what is its reported binding signal?
Marked response: 3.18

Exam item: For consensus (structured_RNA) RNA: GGUCACGUCUCAAUCAACUCCCAAAGGCCUUUCUGAAGGCCACCCAUCAACAGCUCGCAGUCAAG , what is its reported binding signal?
Marked response: 3.32

Exam item: For consensus (structured_RNA) RNA: GGUCACGUCUCAAUCAACUCCCAAAGGCUCUUCUCAGGGCCACCCAUCAACAGCUCGCAGUCAAG , what is its reported binding signal?
Marked response: 3.04

Exam item: For consensus (structured_RNA) RNA: GGUCACGUCUCAAUCAACUCCCAAAGGCUUUUUUAAAAGCCACCCAUCAACAGCUCGCAGUCAAG , what is its reported binding signal?
Marked response: 3.48

Exam item: For consensus (structured_RNA) RNA: GGUCACGUCUCAAUCAACUCCCAAAGGCUUUUUUUAAGGCCACCCAUCAACAGCUCGCAGUCAAG , what is its reported binding signal?
Marked response: 2.7

Exam item: For consensus (structured_RNA) RNA: GGUCACGUCUCAAUCAACUCCCAAAGGUUCUUUUAAGGACCACCCAUCAACAGCUCGCAGUCAAG , what is its reported binding signal?
Marked response: 2.99

Exam item: For consensus (structured_RNA) RNA: GGUCACGUCUCAAUCAACUCCCAAAGGUUCUUCUUAGAACCACCCAUCAACAGCUCGCAGUCAAG , what is its reported binding signal?
Marked response: 2.63

Exam item: For consensus (structured_RNA) RNA: GGUCACGUCUCAAUCAACUCCCAAAGGCCUUUCUUAGGGCCACCCAUCAACAGCUCGCAGUCAAG , what is its reported binding signal?
Marked response: 1.28

Exam item: For consensus (structured_RNA) RNA: GGUCACGUCUCAAUCAACUCCCAAAGGCCUUUUUUAAGGCCACCCAUCAACAGCUCGCAGUCAAG , what is its reported binding signal?
Marked response: 3.59

Exam item: For consensus (structured_RNA) RNA: GGUCACGUCUCAAUCAACUCCCAAAGGUCUUUUUUAGGGCCACCCAUCAACAGCUCGCAGUCAAG , what is its reported binding signal?
Marked response: 0.724
